Tested on: UACC-62
assay_protocol: NCI tumour cell line growth inhibition, 48 h
Activity calls are given as the source filed them. Cut-off read from the data, not from the text of the source: active = GI50 up to about 1.1 µM and inactive = higher.
Entries and their GI50 values follow.

Worked set:
INSERT INTO results (molecule, observation_type, measured) VALUES
  ('C/C(=N\Nc1ccc2ccccc2n1)c1ccccc1O', 'GI50', '> 100 µM (inactive)'),
  ('CN1c2ccccc2S(=O)(=O)n2c(COc3ccccc3)nnc21', 'GI50', '> 100 µM (inactive)'),
  ('O=C1CC(O)c2cscc21 (stereo unspecified)', 'GI50', '> 100 µM (inactive)'),
  ('CCNc1nc2c(=O)n(C)c(=O)n(C)c2s1', 'GI50', '> 100 µM (inactive)'),
  ('COC(=O)C1OC(SCCN)C(O)C(O)C1O (stereo unspecified)', 'GI50', '> 100 µM (inactive)');

Query: Hello, please tell me recorded GI50 for this one: C[C@]12CC[C@H]3[C@@H](CCC4=CC(=O)CC[C@@H]43)[C@@H]1CC[C@]2(O)C(N)=O
Result: > 100 µM (inactive)

Query: Output GI50 of NNc1[nH]c(=S)[nH]c1C(N)=O
Result: > 100 µM (inactive)

Query: Report GI50, nothing else, for this molecule: CC1=C(C(=O)N[C@@H](CC(C)C)C(=O)O)N2C(=O)[C@@H](NC(=O)[C@@H](N)Cc3ccccc3)[C@H]2SC1
Result: > 100 µM (inactive)

Query: Assign GI50 to the following record: O=C1CSC(c2ccccc2)N1c1nc2cc3sc(N4C(=O)CSC4c4ccccc4)nc3cc2s1 (stereo unspecified)
Result: 56.8 µM (inactive)

Query: Please report GI50 for the following molecule: COc1ccc2c(=O)c(-c3cc4c(cc3OC)OCO4)coc2c1
Result: > 100 µM (inactive)

Query: Please supply the value of reported GI50 for the item O=C1/C(=C/c2cc3c(=O)c4ccccc4sc3s2)NC(=S)N1c1ccccc1
Result: > 100 µM (inactive)

Query: Specify GI50 for Cc1c(Cl)ccc2c1NC(=O)C2(O)CC(=O)c1ccc2ccccc2c1 (stereo unspecified) and stop.
Result: 21.5 µM (inactive)

Query: Retrieve GI50 measured for C=C1C=CC2(Br)OC3CC(C)(Cl)C(Br)CC13C2(C)C (stereo unspecified) and print it.
Result: 17.8 µM (inactive)

Query: Tell me its GI50 given C=C1C(=O)OC2CC3(C)C=CC(=O)C(=C)C3CC12 (stereo unspecified) as the entry.
Result: 1.5 µM (inactive)

Query: Identify measured GI50 associated with c1ccc2c(c1)N[C@@H]1c3[nH]c4ccccc4c3CC[C@H]21
Result: 17.6 µM (inactive)

Query: Look up and state reported GI50 for O=[N+]([O-])c1ccc(Cl)cc1N/N=C/c1cccs1
Result: > 100 µM (inactive)

Query: Supply reported GI50 belonging to this molecule: CC1OC(O[C@H]2C3C=CO[C@@H](OC4OC(CO)C(O)C(O)C4O)C3[C@@]3(COC(=O)/C=C/c4ccc(O)cc4)O[C@@H]23)C(O)C(O)C1O (stereo partly specified)
Result: > 100 µM (inactive)

Query: Give GI50 for the following molecule: COC(=O)C(=O)C(C(=O)C(=O)Nc1ccc([N+](=O)[O-])cc1[N+](=O)[O-])c1nc2ccc([N+](=O)[O-])cc2nc1O (stereo unspecified)
Result: > 100 µM (inactive)

Query: Consider the molecule CCC/C(Cl)=N/OC(=O)Nc1cc(C(F)(F)F)ccc1OC and give its recorded GI50.
Result: 15.2 µM (inactive)

Query: Please supply the value of reported GI50 for the item O=C1CC2[C@@H](N3CCCC3)CCC(N1Cc1ccccc1)C2(O)O (stereo partly specified)
Result: > 100 µM (inactive)

Query: Note GI50 for the molecule shown: c1ccc2cc3c(cc2c1)nc1ccccn13
Result: > 100 µM (inactive)
